Reference source: ChEMBL document CHEMBL5291721

Target: Progesterone receptor (Homo sapiens, UniProt P06401); further: assay procedure not described here
Sequence (P06401 whole entry): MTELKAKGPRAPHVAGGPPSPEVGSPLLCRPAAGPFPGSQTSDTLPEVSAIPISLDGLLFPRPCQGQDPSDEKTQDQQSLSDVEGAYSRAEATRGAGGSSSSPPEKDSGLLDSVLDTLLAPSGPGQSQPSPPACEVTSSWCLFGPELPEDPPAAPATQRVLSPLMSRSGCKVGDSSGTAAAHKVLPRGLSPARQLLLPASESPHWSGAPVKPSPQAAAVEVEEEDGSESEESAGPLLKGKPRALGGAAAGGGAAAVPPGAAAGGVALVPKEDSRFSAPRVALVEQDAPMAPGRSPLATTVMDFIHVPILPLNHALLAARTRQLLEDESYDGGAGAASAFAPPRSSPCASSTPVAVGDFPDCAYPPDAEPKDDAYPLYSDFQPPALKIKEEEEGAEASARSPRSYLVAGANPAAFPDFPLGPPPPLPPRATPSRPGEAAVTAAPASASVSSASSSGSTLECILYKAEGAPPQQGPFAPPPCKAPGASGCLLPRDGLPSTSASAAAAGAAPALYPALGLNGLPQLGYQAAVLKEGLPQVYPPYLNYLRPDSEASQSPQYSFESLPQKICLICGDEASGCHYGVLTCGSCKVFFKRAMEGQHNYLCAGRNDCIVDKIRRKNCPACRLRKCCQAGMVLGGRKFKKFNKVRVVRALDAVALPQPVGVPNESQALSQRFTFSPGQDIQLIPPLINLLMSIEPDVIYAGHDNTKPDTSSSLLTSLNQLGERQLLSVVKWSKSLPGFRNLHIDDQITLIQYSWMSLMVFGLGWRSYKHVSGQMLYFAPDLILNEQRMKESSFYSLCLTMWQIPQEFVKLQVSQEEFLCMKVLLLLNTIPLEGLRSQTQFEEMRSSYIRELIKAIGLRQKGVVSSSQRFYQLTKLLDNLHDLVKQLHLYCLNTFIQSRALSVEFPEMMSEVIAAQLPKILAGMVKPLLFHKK
Type: functional
I'd be grateful if you could share measured AC50 for these entries.

IN: Give the reported AC50 for CC(=O)N1CCN(c2ccc(OCC3COC(Cn4ccnc4)(c4ccc(Cl)cc4Cl)O3)cc2)CC1 (stereo not given) [KETOCONAZOLE] (system: Progesterone receptor (Homo sapiens, UniProt P06401)). Further: assay procedure not described here.
OUT: > 10 µM

IN: Try this compound too: CCN(C(C)=O)c1cccc(-c2ccnc3c(C#N)cnn23)c1 [ZALEPLON]
OUT: > 30 µM

IN: Try this compound too: NCCCCCC(=O)O [AMINOCAPROIC ACID]
OUT: > 10 µM

IN: Try this compound too: CCCCOC(=O)c1ccc(N)cc1 [BUTAMBEN]
OUT: > 30 µM

IN: Try this compound too: CCCCCCCC(=O)CC[C@@H]1[C@@H](C/C=C\CCCC(=O)O)[C@@H](O)C[C@H]1O [UNOPROSTONE]
OUT: > 30 µM

IN: Try this compound too: CC(C)(C)NCC(O)COc1cccc2c1CC(O)C(O)C2 (stereo not given) [NADOLOL]
OUT: > 10 µM

IN: Try this compound too: N=C(N)NC(=O)c1nc(Cl)c(N)nc1N [AMILORIDE]
OUT: > 30 µM

IN: Try this compound too: C[C@@H](Cc1ccccc1)N(C)Cc1ccccc1 [BENZPHETAMINE]
OUT: > 10 µM

IN: Try this compound too: COC(=O)[C@H]1[C@H]2C[C@@H]3c4[nH]c5ccccc5c4CCN3C[C@H]2C[C@@H](OC(=O)c2cc(OC)c(OC)c(OC)c2)[C@@H]1OC [DESERPIDINE]
OUT: > 30 µM

IN: Try this compound too: CC[N+](CC)(CCNC(=O)C(=O)NCC[N+](CC)(CC)Cc1ccccc1Cl)Cc1ccccc1Cl [AMBENONIUM]
OUT: > 30 µM

IN: Try this compound too: CN(Cc1ccc(C(C)(C)C)cc1)Cc1cccc2ccccc12 [BUTENAFINE]
OUT: > 30 µM

IN: Try this compound too: CNCCc1ccccn1 [BETAHISTINE]
OUT: > 30 µM

IN: Try this compound too: CCN1C(=O)NC(c2ccccc2)C1=O (stereo not given) [ETHOTOIN]
OUT: > 30 µM

IN: Try this compound too: Cc1c(C)c2c(c(C)c1O)CCC(C)(COc1ccc(CC3SC(=O)NC3=O)cc1)O2 (stereo not given) [TROGLITAZONE]
OUT: 16 µM

IN: Try this compound too: CNC1(C)C2CCC(C2)C1(C)C (stereo not given) [MECAMYLAMINE]
OUT: > 10 µM

IN: Try this compound too: OCC(O)COc1ccc(Cl)cc1 (stereo not given)
OUT: > 10 µM

IN: Try this compound too: Nc1ccc(S(=O)(=O)Nc2ncccn2)cc1 [SULFADIAZINE]
OUT: > 10 µM

IN: Try this compound too: Cc1ccc(S(=O)(=O)NC(=O)N[C@H]2[C@H]3CC[C@@](C)([C@H]2O)C3(C)C)cc1 [GLIBORNURIDE]
OUT: > 30 µM

IN: Try this compound too: CN(C)CCOCC(=O)NC12CC3CC(CC(C3)C1)C2 [TROMANTADINE]
OUT: > 30 µM

IN: Try this compound too: COc1ccc(C(Cl)=C(c2ccc(OC)cc2)c2ccc(OC)cc2)cc1 [CHLOROTRIANISENE]
OUT: > 30 µM
